measurementNotes: Half life in cynomolgus monkey at 0.4 mg/kg, iv by LC/MS/MS analysis
Type: ADME, organism-based, Macaca fascicularis
Design: dose 0.4 mg/kg, route intravenous
particulars: in vivo
quantityName: half-life (h)

{"givenSmiles": "C[C@@H](O)c1nc2cnc3[nH]ccc3c2n1[C@H]1CCCOC1", "half-life [h]": 1.1}

a = C[C@@H](O)c1nc2cnc3[nH]ccc3c2n1[C@H]1CC[C@H](CCC#N)CC1
b = C[C@@H](O)c1nc2cnc3[nH]ccc3c2n1[C@H]1CC[C@H](C#N)CC1
**Query** Which of the two items, a and b , has the greater recorded half-life? Lab log: write the label of the selected item as the result.
**Result** b
(b: 1.7 h, a: 0.8 h)

* * *

measurementNotes: Clearance in Beagle dog at 0.4 mg/kg, iv by LC/MS/MS analysis
Format: ADME, organism-based, Canis lupus familiaris
Design: dose 0.4 mg/kg, route intravenous
particulars: in vivo
quantityName: clearance (mL/min/kg)

{"givenSmiles": "C[C@@H](O)c1nc2cnc3[nH]ccc3c2n1[C@H]1CC[C@@H](NCC(F)(F)F)C1", "unitsOfMeasure": "mL/min/kg", "clearance": 14}
{"givenSmiles": "C[C@@H](O)c1nc2cnc3[nH]ccc3c2n1[C@H]1CC[C@H](CC#N)CC1", "unitsOfMeasure": "mL/min/kg", "clearance": 17}
{"givenSmiles": "C[C@@H](O)c1nc2cnc3[nH]ccc3c2n1[C@H]1CC[C@H](NCC(F)(F)F)CC1", "unitsOfMeasure": "mL/min/kg", "clearance": 13}

I = C[C@@H](O)c1nc2cnc3[nH]ccc3c2n1[C@H]1CC[C@H](CCC#N)CC1
II = C[C@@H](O)c1nc2cnc3[nH]ccc3c2n1[C@H]1CC[C@H](C#N)CC1
III = C[C@@H](O)c1nc2cnc3[nH]ccc3c2n1[C@H]1CCCOC1
**Query** Rank items: key clearance, increasing. Response format: the labels, sorted as the prompt asks.
**Result** III, II, I

* * *

measurementNotes: Plasma protein binding in dog
Type: ADME, cell-free, Canis lupus familiaris
particulars: read-out: PPB (converted)
quantityName: fraction unbound

Solved entries:
{"givenSmiles": "C[C@@H](O)c1nc2cnc3[nH]ccc3c2n1[C@H]1CC[C@@H](NCC(F)(F)F)C1", "fraction unbound": 0.41}
{"givenSmiles": "C[C@@H](O)c1nc2cnc3[nH]ccc3c2n1[C@H]1CC[C@H](NCC(F)(F)F)CC1", "fraction unbound": 0.45}
{"givenSmiles": "C[C@@H](O)c1nc2cnc3[nH]ccc3c2n1[C@H]1CCCOC1", "fraction unbound": 0.39}
{"givenSmiles": "C[C@@H](O)c1nc2cnc3[nH]ccc3c2n1[C@H]1CC[C@H](CCC#N)CC1", "fraction unbound": 0.34}

P = C[C@@H](O)c1nc2cnc3[nH]ccc3c2n1[C@H]1CC[C@H](CC#N)CC1
Q = C[C@@H](O)c1nc2cnc3[nH]ccc3c2n1[C@H]1CC[C@H](C#N)CC1
**Query** When P and Q are compared, which has the higher number for fraction unbound? API: response body contains the label of the selected item.
**Result** Q

* * *

measurementNotes: Metabolic stability in monkey hepatocytes assessed as hepatic clearance
Format: ADME, cell-based, Macaca mulatta, Liver, Hepatocyte
particulars: rhesus monkey
quantityName: CLhep predicted (mL/min/kg)

{"givenSmiles": "C[C@@H](O)c1nc2cnc3[nH]ccc3c2n1[C@H]1CCCOC1", "CLhep predicted (mL/min/kg)": 21}
{"givenSmiles": "C[C@@H](O)c1nc2cnc3[nH]ccc3c2n1[C@H]1CC[C@H](NCC(F)(F)F)CC1", "CLhep predicted (mL/min/kg)": 26}

P = C[C@@H](O)c1nc2cnc3[nH]ccc3c2n1[C@H]1CC[C@H](CCC#N)CC1
Q = C[C@@H](O)c1nc2cnc3[nH]ccc3c2n1[C@H]1CC[C@H](CC#N)CC1
R = C[C@@H](O)c1nc2cnc3[nH]ccc3c2n1[C@H]1CC[C@H](C#N)CC1
**Query** With regard to CLhep predicted, arrange the entries in ascending order, please. Could you list the labels in the order requested?
**Result** R, Q, P
(R: 2.4 mL/min/kg, Q: 25 mL/min/kg, P: 36 mL/min/kg)

* * *

measurementNotes: Clearance in Sprague-Dawley rat at 0.4 mg/kg, iv by LC/MS/MS analysis
Assay type: ADME, organism-based
Design: dose 0.4 mg/kg, route intravenous
particulars: in vivo
quantityName: clearance (mL/min/kg)

# annotated cases, reported clearance shown
{"givenSmiles": "C[C@@H](O)c1nc2cnc3[nH]ccc3c2n1[C@H]1CC[C@H](NCC(F)(F)F)CC1", "unitsOfMeasure": "mL/min/kg", "clearance": 36}
{"givenSmiles": "C[C@@H](O)c1nc2cnc3[nH]ccc3c2n1[C@H]1CC[C@H](CCC#N)CC1", "unitsOfMeasure": "mL/min/kg", "clearance": 126}
{"givenSmiles": "C[C@@H](O)c1nc2cnc3[nH]ccc3c2n1[C@H]1CC[C@H](C#N)CC1", "unitsOfMeasure": "mL/min/kg", "clearance": 60}
{"givenSmiles": "C[C@@H](O)c1nc2cnc3[nH]ccc3c2n1[C@H]1CCCOC1", "unitsOfMeasure": "mL/min/kg", "clearance": 22}

1 = C[C@@H](O)c1nc2cnc3[nH]ccc3c2n1[C@H]1CC[C@@H](NCC(F)(F)F)C1
2 = C[C@@H](O)c1nc2cnc3[nH]ccc3c2n1[C@H]1CC[C@H](CC#N)CC1
**Query** Recorded clearance values differ for 1 and 2 ; which one is higher? Mark your selection by writing its label.
**Result** 1
(1: 55 mL/min/kg, 2: 38 mL/min/kg)

* * *

measurementNotes: Hepatic clearance in human liver microsomes by LC/MS/MS analysis
Assay type: ADME, Microsome
quantityName: CLhep predicted (mL/min/kg)

{"givenSmiles": "C[C@@H](O)c1nc2cnc3[nH]ccc3c2n1[C@H]1CC[C@@H](O)CC1", "endpointValue": 2.1}

I = C[C@@H](O)c1nc2cnc3[nH]ccc3c2n1[C@H]1CC[C@H](NCC(F)F)CC1
II = CC[C@@H](O)c1nc2cnc3[nH]ccc3c2n1C1CCCCC1
**Query** Please let me know which one, I or II , has a lower measured CLhep predicted value. Provide the label of your selected option as the answer.
**Result** I

* * *

pEC50: −log10 of the molar value.
These compounds were tested on Tyrosine-protein kinase JAK1 (Homo sapiens, UniProt P23458); pEC50 is the recorded read-out.
Sequence (P23458 whole entry): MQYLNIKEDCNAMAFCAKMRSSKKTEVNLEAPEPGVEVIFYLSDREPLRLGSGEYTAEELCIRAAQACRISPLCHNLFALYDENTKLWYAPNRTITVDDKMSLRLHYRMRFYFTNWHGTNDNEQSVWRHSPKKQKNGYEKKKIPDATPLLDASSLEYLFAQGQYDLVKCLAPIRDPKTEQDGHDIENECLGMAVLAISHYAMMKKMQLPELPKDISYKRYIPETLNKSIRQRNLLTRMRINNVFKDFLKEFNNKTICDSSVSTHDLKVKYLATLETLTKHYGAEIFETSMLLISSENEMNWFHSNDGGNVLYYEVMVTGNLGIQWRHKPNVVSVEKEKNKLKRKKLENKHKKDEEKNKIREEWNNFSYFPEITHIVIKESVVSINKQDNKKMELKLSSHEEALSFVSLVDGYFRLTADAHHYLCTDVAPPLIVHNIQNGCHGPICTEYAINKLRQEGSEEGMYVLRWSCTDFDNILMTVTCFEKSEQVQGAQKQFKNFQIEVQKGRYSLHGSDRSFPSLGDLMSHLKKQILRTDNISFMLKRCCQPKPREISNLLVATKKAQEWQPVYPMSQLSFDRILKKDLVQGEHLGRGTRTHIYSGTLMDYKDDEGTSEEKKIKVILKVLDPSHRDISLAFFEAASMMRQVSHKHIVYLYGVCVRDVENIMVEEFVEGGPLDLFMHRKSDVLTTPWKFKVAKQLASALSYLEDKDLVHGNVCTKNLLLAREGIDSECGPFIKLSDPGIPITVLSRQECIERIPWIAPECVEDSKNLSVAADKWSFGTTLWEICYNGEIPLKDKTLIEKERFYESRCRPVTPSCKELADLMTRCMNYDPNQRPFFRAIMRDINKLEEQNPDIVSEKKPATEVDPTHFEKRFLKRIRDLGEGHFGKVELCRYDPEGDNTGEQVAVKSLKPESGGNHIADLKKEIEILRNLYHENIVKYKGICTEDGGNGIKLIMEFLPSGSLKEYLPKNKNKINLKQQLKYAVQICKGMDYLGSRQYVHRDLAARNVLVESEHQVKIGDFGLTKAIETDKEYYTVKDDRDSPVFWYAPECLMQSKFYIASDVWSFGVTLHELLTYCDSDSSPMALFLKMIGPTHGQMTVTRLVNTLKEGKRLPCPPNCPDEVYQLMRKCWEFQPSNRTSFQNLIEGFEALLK
quantityName: pEC50

a = C[C@@H](O)c1nc2cnc3[nH]ccc3c2n1C1CCN(CCC#N)CC1
b = C[C@@H](O)c1nc2cnc3[nH]ccc3c2n1[C@H]1CC[C@@H](C#N)CC1
c = C[C@@H](O)c1nc2cnc3[nH]ccc3c2n1[C@H]1CCCOC1
**Query** // ascending sort on pEC50 for the entries above Give your ranking as a list of the labels in the requested order.
**Result** a, c, b
(a: 6.49, c: 6.74, b: 7.11)

a = C[C@@H](O)c1nc2cnc3[nH]ccc3c2n1[C@H]1CC[C@H](NCC(F)(F)F)CC1
b = C[C@@H](O)c1nc2cnc3[nH]ccc3c2n1[C@H]1CC[C@H](NCC(F)F)CC1
**Query** Smaller pEC50 value? Options are a and b Identify your pick by its label.
**Result** b

* * *

measurementNotes: Cmax in cynomolgus monkey at 2 mg/kg, po by LC/MS/MS analysis
Assay type: ADME, organism-based, Macaca fascicularis
Set-up: dose 2 mg/kg, route oral
particulars: in vivo
quantityName: Cmax (µM)

{"givenSmiles": "C[C@@H](O)c1nc2cnc3[nH]ccc3c2n1[C@H]1CC[C@H](C#N)CC1", "unitsOfMeasure": "µM", "endpointValue": 0.63}

a = C[C@@H](O)c1nc2cnc3[nH]ccc3c2n1[C@H]1CC[C@H](CCC#N)CC1
b = C[C@@H](O)c1nc2cnc3[nH]ccc3c2n1[C@H]1CCCOC1
**Query** Record comparison, field Cmax: mark the lower of a and b . Use the label to indicate which entry you chose.
**Result** a

* * *

measurementNotes: Plasma protein binding in rat
Format: ADME, cell-free
particulars: read-out: PPB (converted)
quantityName: fraction unbound

Previously resolved entries follow.
{"givenSmiles": "C[C@@H](O)c1nc2cnc3[nH]ccc3c2n1[C@H]1CC[C@H](NCC(F)(F)F)CC1", "fraction unbound": 0.44}
{"givenSmiles": "C[C@@H](O)c1nc2cnc3[nH]ccc3c2n1[C@H]1CCCOC1", "fraction unbound": 0.61}
{"givenSmiles": "C[C@@H](O)c1nc2cnc3[nH]ccc3c2n1[C@H]1CC[C@H](C#N)CC1", "fraction unbound": 0.62}

P = C[C@@H](O)c1nc2cnc3[nH]ccc3c2n1[C@H]1CC[C@H](CCC#N)CC1
Q = C[C@@H](O)c1nc2cnc3[nH]ccc3c2n1[C@H]1CC[C@@H](NCC(F)(F)F)C1
**Query** Please indicate which item has the smaller measured fraction unbound: P versus Q Give the label under which the chosen entry appears.
**Result** P
